These measurements were taken from ChEMBL document CHEMBL2331206.

- Tested on: HEK293
- procedure.details: Inhibition of Pre-mRNA splicing in human HEK293 cells using biotin-labeled Ad2 pre-mRNA by exonjunction complex (EJC) immunoprecipitation assay
pIC50: −log10 of the molar value.
Below, each entry is listed with its recorded pIC50.
endpoint: pIC50

>>> observed_value("CC(=O)O[C@@H](C)/C=C\\C(=O)N[C@@H]1C[C@H](C)[C@H](C/C=C(C)/C=C/[C@H]2O[C@H](CC(=O)O)C[C@@](O)(CCl)[C@@H]2O)O[C@@H]1C")
5.21
>>> observed_value("CC(/C=C/[C@H]1O[C@H](CC(=O)O)C[C@@](O)(CCl)[C@@H]1O)=C\\C[C@@H]1O[C@H](C)[C@H](NC(=O)/C=C\\[C@H](C)OC(=O)C(C)C)C[C@@H]1C")
5.16
>>> observed_value("CC(=O)O[C@@H](C)/C=C\\C(=O)N[C@@H]1C[C@H](C)[C@H](C/C=C(C)/C=C/[C@H]2O[C@](C)(O)C[C@@]3(CO3)[C@@H]2O)O[C@@H]1C")
6.24
>>> observed_value("CC(=O)O[C@@H](C)/C=C\\C(=O)N[C@@H]1C[C@H](C)[C@H](C/C=C(C)/C=C/[C@H]2O[C@H](CC(=O)O)C[C@@]3(CO3)[C@@H]2O)O[C@@H]1C")
6.19
